# Test system: NCI-H929 complex spheroids, viability % test/control
# testDetails: Anticancer human tumor NCI-H929 cell line growth inhibition [RAS];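 further: compound exposure lasted seven days before viability was read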
# reportedConditions: curve of first compound; second compound 0.00316 µM
property: IC50 (nM)

CCc1c2c(nc3ccc(O)cc13)-c1cc3c(c(=O)n1C2)COC(=O)[C@]3(O)CC + C=CC(=O)N1CCN(c2nc(OCC3CCCN3C)nc3c(F)c(-c4nc(N)cc(C)c4C(F)(F)F)c(Cl)cc23)C(C)C1 | 1.85
Nc1ccn(C2OC(CO)C(O)C2(F)F)c(=O)n1 (configuration not stated) + C=CC(=O)N1CCN(c2nc(OCC3CCCN3C)nc3c(F)c(-c4nc(N)cc(C)c4C(F)(F)F)c(Cl)cc23)C(C)C1 | 18.4
CC1(C)CCC(Nc2ncc(C(F)(F)F)c(-c3c[nH]c4c(P(C)(C)=O)c(C#N)ccc34)n2)CN1 (configuration not stated) + C=CC(=O)N1CCN(c2nc(OCC3CCCN3C)nc3c(F)c(-c4nc(N)cc(C)c4C(F)(F)F)c(Cl)cc23)C(C)C1 | 5.68
CC(C)NCC(C(=O)N1CCN(c2ncnc3c2C(C)CC3O)CC1)c1ccc(Cl)cc1 (configuration not stated) + C=CC(=O)N1CCN(c2nc(OCC3CCCN3C)nc3c(F)c(-c4nc(N)cc(C)c4C(F)(F)F)c(Cl)cc23)C(C)C1 | 2820
CC(C)n1nc(-c2ccc3oc(N)nc3c2)c2c(N)ncnc21 + C=CC(=O)N1CCN(c2nc(OCC3CCCN3C)nc3c(F)c(-c4nc(N)cc(C)c4C(F)(F)F)c(Cl)cc23)C(C)C1 | 63.2

Reference for the values: PubChem BioAssay AID2060884
